- protocol-summary: A CellTox Green Cytotoxicity Assay to monitor cytotoxicity in HEK293 cells - 24 hour (AID 1224875); note: nearly all actives have a fitted effect of over 45% in size
- condition-details: CellTox Green fluorescence; series mostly up to 76.8 µM
- Excerpt: National Center for Advancing Translational Sciences [NCATS] NIH Chemical Genomics Center [NCGC] U.S. Environmental Protection Agency [EPA] National Institutes of Environmental Health Sciences [NIEHS] National Toxicology Program [NTP] Cell-based models are critical for drug discovery. […] Viable cells produce no appreciable increases in fluorescence. Therefore, the fluorescence signal produced by the binding interaction with dead cell DNA is proportional to cytotoxicity. […]
Inconclusive results are not listed. Calls of active or inactive are those of the source. Calls come from the whole dose curve; as a rule, active = well fitted activation curve with a large enough effect in the repeat runs; inconclusive = weak or mixed curves; inactive = flat fitted curve, though single readings scatter.
Pick from active, inactive when you respond.

These recorded examples may help you get a feel for the data.
CC(O)C#N (stereo unspecified): inactive
SCc1ccco1: inactive
COS(=O)(=O)c1ccc(C)cc1: inactive
CCOP(=S)(OCC)SCS(=O)(=O)C(C)(C)C: inactive
C[C@]12CC[C@@H]3c4ccc(OC(=O)N(CCCl)CCCl)cc4CC[C@H]3[C@@H]1CC[C@@H]2O: inactive

Req: Could you kindly confirm the outcome this assay logged for `OC(c1ccc(Cl)cc1)(c1ccc(Cl)cc1)C(Cl)(Cl)Cl` ?
Resp: inactive

Req: Could you kindly confirm the outcome this assay logged for `CCCCN(CCCC)C(=S)[S-].CCCCN(CCCC)C(=S)[S-].[Zn+2]` ?
Resp: active

Req: Could you kindly confirm the outcome this assay logged for `CC(C)C(=O)Cl` ?
Resp: inactive

Req: Could you kindly confirm the outcome this assay logged for `Cc1cc(C(C)(C)c2cc(C)c(O)c(C)c2)cc(C)c1O` ?
Resp: inactive

Req: Could you kindly confirm the outcome this assay logged for `Oc1ccc(I)cc1` ?
Resp: inactive
